# test_system: Ectonucleotide pyrophosphatase/phosphodiesterase family member 1 (Homo sapiens)
# Sequence (P22413 whole entry): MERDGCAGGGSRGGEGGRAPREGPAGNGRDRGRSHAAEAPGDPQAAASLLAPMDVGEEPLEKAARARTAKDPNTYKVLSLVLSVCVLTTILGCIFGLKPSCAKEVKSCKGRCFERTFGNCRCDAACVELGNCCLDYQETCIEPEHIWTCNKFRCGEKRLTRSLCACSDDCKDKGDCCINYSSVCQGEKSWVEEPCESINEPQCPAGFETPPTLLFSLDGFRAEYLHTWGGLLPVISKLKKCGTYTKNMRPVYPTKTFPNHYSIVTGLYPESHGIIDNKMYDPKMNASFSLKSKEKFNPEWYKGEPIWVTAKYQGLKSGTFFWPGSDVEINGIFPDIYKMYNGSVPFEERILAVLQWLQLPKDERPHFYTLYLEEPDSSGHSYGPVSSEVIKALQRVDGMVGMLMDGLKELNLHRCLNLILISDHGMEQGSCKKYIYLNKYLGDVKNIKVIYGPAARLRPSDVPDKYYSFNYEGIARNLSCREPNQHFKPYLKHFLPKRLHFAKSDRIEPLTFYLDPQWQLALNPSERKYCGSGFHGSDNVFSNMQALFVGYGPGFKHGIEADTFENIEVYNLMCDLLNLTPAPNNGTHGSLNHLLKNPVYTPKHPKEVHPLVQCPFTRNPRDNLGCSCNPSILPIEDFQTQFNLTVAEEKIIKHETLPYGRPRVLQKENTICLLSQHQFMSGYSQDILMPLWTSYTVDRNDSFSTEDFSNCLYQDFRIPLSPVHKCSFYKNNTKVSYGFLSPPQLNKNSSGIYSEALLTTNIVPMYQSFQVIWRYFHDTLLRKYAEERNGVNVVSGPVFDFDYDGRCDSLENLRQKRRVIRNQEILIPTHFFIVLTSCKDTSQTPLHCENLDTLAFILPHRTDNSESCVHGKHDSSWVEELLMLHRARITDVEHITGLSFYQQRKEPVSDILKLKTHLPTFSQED
# assay_comment: Inhibition of ENPP1 in human MDA-MB-231 cells using p-NPh-5TMP as substrate at pH 9.5 measured after 60 mins
# Format: cell-based
attribute_measured: log10 IC50 (log10 of the value in µM)
// stored as log10 of IC50 expressed in µM

Query: // Input: COc1cccc2c(NC3CC(NS(N)(=O)=O)C3)c(C#N)cnc12 (stereo unspecified) . Output its log10 IC50 only.
Result: -1.78

Query: State its log10 IC50 for this compound: COc1cccc2c(N3CCC(O)(CCNS(N)(=O)=O)CC3)ncnc12
Result: -0.81

Query: Look up and report measured log10 IC50 for this entry: COc1cccc2c(N3CCC(CCP(=O)(O)O)CC3)ncnc12
Result: -1.30

Query: Query log10 IC50 for COc1cccc2c(N3CCC(C)(CNS(N)(=O)=O)CC3)c(C#N)cnc12
Result: -2.97

Query: For the compound Cn1nc(Cc2ccc(NS(N)(=O)=O)cc2)c2ccccc2c1=O , give its reported log10 IC50.
Result: -0.25
